# protocol details: Compound 67A pharmacokinetics in human subjects
# Assay type: in vivo
# test conditions: in vivo; human subjects, 15 mg BID; AUC0-12

{"compound": "CC(C)OC(=O)Nc1ccc(-c2cnc([C@H]3CC[C@H](NC(=O)OC(C)C)CC3)s2)c(S(=O)(=O)NC(C)(C)C)c1 [Compound 67A]", "AUC(0-t), ng·h/mL": 2630}

---

# protocol details: Food effect pharmacokinetics, 90 mg QD, cycle 1 day 1
# Type: in vivo, human
# test conditions: human, in vivo, oral, 90 mg, Fasted Patients (n = 3), 90 mg QD, cycle 1 day 1; median (min, max)

{"compound": "CC(C)OC(=O)Nc1ccc(-c2cnc([C@H]3CC[C@H](NC(=O)OC(C)C)CC3)s2)c(S(=O)(=O)NC(C)(C)C)c1 [Compound 67A]", "Tmax": "4 h"}
